The reported numbers originate from PubChem BioAssay.

# target.system: Dickkopf-related protein 1 (Homo sapiens) (UniProt O94907)
# Sequence (O94907 whole entry, looked up): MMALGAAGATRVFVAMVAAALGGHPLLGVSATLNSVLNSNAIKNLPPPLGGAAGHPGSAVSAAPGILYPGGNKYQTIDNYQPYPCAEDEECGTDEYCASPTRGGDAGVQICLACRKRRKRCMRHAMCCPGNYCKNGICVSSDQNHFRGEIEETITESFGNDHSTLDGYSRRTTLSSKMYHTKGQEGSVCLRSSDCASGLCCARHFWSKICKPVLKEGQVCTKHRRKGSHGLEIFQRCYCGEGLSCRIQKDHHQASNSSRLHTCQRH
# protocol.summary: DKK1 binders on small-molecule microarrays, primary screen, biochemical, small-molecule microarray, 635 nm fluorescence scan (AID 1106);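 further: score merges emission near 667 nm with signal to noise over three replicate slides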
# experimental.conditions: DKK1 binding, higher = more signal
Measured composite z-score, listed per entry for reference.
Form rule: numeric answer, no unit written next to it.

CC(C)[Si](C#Cc1ccccc1)(O[C@H](c1ccccc1)c1cn(Cc2ccccc2)nn1)C(C)C    1.86
C=C(COC)C(=O)CC[C@H](OC(C)=O)c1ccc(CO)o1    0.488
COC(=O)[C@@]1(Cc2ccc(F)cc2)[C@H]2c3cc(C(=O)N4CCCC4)n(Cc4ccc(C(F)(F)F)nc4)c3C[C@H]2CN1C(=O)c1ccccc1    -0.417

INPUT: Complete the entry with composite z-score for `O=C(CS)NCCCCCCNC(=O)[C@H]1C[C@H]2C(=O)NCC(=O)N2[C@H]1c1cccc(OCCO)c1`
OUTPUT: 0.602
